Consider the following molecules; for each one, report its Ki.
Test: Inhibition of Cryptococcus neoformans Can2 beta-carbonic anhydrase by stopped flow CO2 hydration assay
# output: bare number, implied unit nM

In: I'd like to know its Ki. The molecule in question is COc1ccc(C(N)=O)cc1
Out: 62

In: Would you kindly repeat that for CC(C)CC(=O)O [SODIUM ISOVALERATE] ?
Out: 910

In: Would you kindly repeat that for CCCCC(CC)C(=O)NO (stereo not given) ?
Out: 290

In: Would you kindly repeat that for CN(C)c1ccc(C(=O)O)cc1 ?
Out: 130

In: Would you kindly repeat that for CCCCC(C)C(=O)O (stereo not given) ?
Out: 3230

In: Would you kindly repeat that for CC(C)C(=O)[O-].[Na+] [SODIUM ISOBUTYRATE] ?
Out: 3810

In: Would you kindly repeat that for CC(=O)Nc1nnc(S(N)(=O)=O)s1 [ACETAZOLAMIDE] ?
Out: 10

In: Would you kindly repeat that for COC(=O)c1ccc(OC)cc1 [METHYL 4-METHOXYBENZOATE] ?
Out: 67

In: Would you kindly repeat that for CCCCC(CC)C(=O)NN (stereo not given) ?
Out: 230

In: Would you kindly repeat that for CCCC(C)C(=O)O (stereo not given) ?
Out: 10200

In: Would you kindly repeat that for CCCCC(CC)C(N)=O (stereo not given) ?
Out: 390

In: Would you kindly repeat that for CCCCC(CC)C(=O)O (stereo not given) ?
Out: 950

In: Would you kindly repeat that for COc1ccc(C(=O)O)cc1 ?
Out: 9.9

In: Would you kindly repeat that for O=C(O)c1ccc(I)cc1 ?
Out: 5460

In: Would you kindly repeat that for CC(=O)Nc1ccc(C(=O)[O-])cc1.[Na+] ?
Out: 320
